The following compounds each carry a recorded IC50 for HDAC8 (Homo sapiens, UniProt Q9BY41).

{"COMPOUND": "COc1ncc(-c2nc(N3CCOCC3)nc3c(OC4CCN(c5ncc(C(=O)NO)cc5F)CC4)cc(F)cc23)cc1NS(C)(=O)=O [Compound 30]", "TARGET": "HDAC8 (Homo sapiens, UniProt Q9BY41)", "IC50": "100 to 1000 nM"}
{"COMPOUND": "COc1ncc(-c2nc(N3CCOCC3)nc3c(OC4CCN(c5ccc(C(=O)NO)cn5)CC4)cc(F)cc23)cc1NS(C)(=O)=O [Compound 40]", "TARGET": "HDAC8 (Homo sapiens, UniProt Q9BY41)", "IC50": "1000 to 10000 nM"}

====

TARGET: PI3Kβ (Homo sapiens, UniProt P42338)
Sequence (P42338 whole entry, species assumed): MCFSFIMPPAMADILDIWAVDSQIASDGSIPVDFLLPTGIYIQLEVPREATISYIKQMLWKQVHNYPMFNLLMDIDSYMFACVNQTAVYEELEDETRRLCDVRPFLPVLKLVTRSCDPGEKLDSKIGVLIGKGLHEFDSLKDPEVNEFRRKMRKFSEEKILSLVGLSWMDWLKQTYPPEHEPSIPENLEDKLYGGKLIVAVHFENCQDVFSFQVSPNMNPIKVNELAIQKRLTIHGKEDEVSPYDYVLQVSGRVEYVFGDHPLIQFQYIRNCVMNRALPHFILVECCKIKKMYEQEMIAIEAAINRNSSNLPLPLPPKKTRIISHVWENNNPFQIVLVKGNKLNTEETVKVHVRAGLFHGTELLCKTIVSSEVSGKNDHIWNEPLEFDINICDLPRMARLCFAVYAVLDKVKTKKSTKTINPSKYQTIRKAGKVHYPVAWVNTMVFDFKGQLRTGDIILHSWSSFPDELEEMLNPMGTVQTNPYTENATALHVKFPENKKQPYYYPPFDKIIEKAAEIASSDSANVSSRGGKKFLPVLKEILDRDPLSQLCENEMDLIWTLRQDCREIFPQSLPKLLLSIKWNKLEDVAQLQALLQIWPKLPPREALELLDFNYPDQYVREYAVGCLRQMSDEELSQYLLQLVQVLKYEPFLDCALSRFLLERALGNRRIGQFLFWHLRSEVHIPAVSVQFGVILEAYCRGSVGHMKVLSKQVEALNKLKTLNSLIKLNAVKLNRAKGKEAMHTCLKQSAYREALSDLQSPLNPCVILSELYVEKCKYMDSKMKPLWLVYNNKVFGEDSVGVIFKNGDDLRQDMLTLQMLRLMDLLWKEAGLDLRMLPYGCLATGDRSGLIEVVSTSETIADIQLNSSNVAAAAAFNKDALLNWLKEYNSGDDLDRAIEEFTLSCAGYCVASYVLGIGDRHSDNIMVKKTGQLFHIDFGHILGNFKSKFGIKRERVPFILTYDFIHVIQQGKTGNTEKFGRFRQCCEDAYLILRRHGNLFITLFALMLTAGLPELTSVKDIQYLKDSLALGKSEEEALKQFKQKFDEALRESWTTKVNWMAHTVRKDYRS
Sequence (P27986 whole entry partner, species assumed): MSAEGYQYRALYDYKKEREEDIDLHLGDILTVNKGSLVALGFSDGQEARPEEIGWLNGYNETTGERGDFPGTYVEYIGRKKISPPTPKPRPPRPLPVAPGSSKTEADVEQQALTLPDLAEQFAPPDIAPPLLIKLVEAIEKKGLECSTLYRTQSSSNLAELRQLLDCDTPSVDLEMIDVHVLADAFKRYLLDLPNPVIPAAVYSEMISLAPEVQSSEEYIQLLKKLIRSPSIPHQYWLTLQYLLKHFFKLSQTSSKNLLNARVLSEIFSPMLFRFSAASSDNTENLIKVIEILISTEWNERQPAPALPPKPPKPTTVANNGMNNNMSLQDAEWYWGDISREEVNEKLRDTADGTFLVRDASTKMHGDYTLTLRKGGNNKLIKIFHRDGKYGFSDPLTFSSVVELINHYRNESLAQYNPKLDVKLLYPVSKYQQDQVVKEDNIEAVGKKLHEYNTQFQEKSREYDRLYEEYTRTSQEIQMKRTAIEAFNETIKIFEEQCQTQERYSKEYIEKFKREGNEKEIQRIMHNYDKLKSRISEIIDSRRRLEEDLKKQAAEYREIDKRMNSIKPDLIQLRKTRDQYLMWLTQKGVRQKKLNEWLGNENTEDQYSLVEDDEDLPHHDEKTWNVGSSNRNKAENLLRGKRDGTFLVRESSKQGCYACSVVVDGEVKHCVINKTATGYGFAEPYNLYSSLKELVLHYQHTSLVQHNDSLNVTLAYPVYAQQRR
ASSAY_SUMMARY: PI3Kβ enzyme activity inhibition IC50 evaluation assay (ADP-Glo Kinase Assay)
Assay type: biochemical
APPLIED_CONDITIONS: ATP 25 μM, PIP2 50 μg/mL, 1 hour room temperature, read-out: PI3K-β IC50

{"MOLECULE": "COc1ncc(-c2nc(N3CCOCC3)nc3c(CN4CCC(C(C)(C)O)CC4)cc(F)cc23)cc1NS(C)(=O)=O [YY-20394, reference compound]", "IC50": "100 to 1000 nM"}
{"MOLECULE": "COc1ncc(-c2nc(N3CCOCC3)nc3c(CN4CCN(c5ncc(C(=O)NO)cn5)CC4)cc(F)cc23)cc1NS(C)(=O)=O", "IC50": "100 to 1000 nM"}

====

TARGET: UniProt:Q92769
Sequence (Q92769 whole entry, species assumed): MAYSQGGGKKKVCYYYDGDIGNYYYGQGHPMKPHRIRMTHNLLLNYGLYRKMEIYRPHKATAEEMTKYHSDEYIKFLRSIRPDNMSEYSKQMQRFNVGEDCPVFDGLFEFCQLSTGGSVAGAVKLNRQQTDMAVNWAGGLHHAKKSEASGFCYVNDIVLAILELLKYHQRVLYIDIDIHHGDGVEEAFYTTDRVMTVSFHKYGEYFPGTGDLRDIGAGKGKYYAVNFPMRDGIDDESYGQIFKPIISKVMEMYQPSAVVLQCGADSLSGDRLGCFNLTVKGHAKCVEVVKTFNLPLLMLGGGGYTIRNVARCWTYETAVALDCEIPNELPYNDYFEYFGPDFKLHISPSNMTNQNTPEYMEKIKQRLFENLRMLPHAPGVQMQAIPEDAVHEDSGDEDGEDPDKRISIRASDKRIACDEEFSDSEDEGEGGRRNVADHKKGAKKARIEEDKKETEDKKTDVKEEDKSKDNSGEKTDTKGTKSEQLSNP

{"MOLECULE_SMILES": "COc1ncc(-c2nc(N3CCOCC3)nc3c(OC4CCN(c5ccc(C(=O)NO)cn5)CC4)cc(F)cc23)cc1NS(C)(=O)=O", "IC50": "100 to 1000 nM"}
{"MOLECULE_SMILES": "COc1ncc(-c2nc(N3CCOCC3)nc3c(OCc4ncc(C(=O)NO)cc4F)cc(F)cc23)cc1NS(C)(=O)=O", "IC50": "1000 to 10000 nM"}

====

List of IC50 tested on PI3Kδ (Homo sapiens).
Sequence (O00329 whole entry, species assumed): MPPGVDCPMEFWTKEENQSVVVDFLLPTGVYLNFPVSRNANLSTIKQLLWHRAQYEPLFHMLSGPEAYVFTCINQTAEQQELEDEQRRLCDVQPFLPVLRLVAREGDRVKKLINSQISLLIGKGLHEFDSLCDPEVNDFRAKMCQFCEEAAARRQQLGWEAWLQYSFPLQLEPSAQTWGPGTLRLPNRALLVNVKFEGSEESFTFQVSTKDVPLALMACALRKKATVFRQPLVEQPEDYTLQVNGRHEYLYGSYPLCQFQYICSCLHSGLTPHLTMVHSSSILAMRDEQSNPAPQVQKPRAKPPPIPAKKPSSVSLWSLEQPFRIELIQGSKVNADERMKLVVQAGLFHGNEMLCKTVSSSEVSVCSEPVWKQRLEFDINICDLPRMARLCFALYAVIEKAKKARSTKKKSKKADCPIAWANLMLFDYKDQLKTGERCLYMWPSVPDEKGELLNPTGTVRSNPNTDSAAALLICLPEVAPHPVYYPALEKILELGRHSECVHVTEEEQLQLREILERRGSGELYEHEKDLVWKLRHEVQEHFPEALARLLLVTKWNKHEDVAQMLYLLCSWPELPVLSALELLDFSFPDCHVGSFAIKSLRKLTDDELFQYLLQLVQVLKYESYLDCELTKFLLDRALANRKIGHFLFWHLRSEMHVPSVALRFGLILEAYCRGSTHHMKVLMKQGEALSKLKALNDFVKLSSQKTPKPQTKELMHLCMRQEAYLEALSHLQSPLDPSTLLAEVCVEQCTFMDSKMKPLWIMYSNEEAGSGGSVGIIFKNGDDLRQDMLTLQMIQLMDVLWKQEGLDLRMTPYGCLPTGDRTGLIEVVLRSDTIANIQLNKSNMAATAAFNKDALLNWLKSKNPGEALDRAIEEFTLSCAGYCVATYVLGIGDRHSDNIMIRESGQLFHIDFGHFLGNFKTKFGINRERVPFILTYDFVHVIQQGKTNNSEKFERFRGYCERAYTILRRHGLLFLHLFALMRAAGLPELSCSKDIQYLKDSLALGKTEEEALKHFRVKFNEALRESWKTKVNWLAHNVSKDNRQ
Sequence (P27986 whole entry partner, species assumed): as the sequence (P27986 whole entry partner, species assumed) above

{"MOLECULE": "COc1ncc(-c2nc(N3CCOCC3)nc3c(CN4CCC(CCCC(=O)NO)CC4)cc(F)cc23)cc1NS(=O)(=O)C1CC1", "IC50": "0.01 to 0.1 µM"}
{"MOLECULE": "COc1ncc(-c2nc(N3CCOCC3)nc3c(OCc4ccc(C(=O)NO)cc4F)cc(F)cc23)cc1NS(C)(=O)=O", "IC50": "0.01 to 0.1 µM"}
{"MOLECULE": "COc1ncc(-c2nc(N3CCOCC3)nc3c(CN4CCC(c5cc(F)c(C(=O)NO)cc5F)CC4)cc(F)cc23)cc1NS(C)(=O)=O", "IC50": "≤ 0.01 µM"}
{"MOLECULE": "COc1ncc(-c2nc(N3CCOCC3)nc3c(CN4CCN(Cc5ncc(C(=O)NO)cn5)CC4)cc(F)cc23)cc1NS(C)(=O)=O", "IC50": "≤ 0.01 µM"}
{"MOLECULE": "COc1ncc(-c2nc(N3CCOCC3)nc3c(CN4CCC(c5c(F)cc(C(=O)NO)cc5F)CC4)cc(F)cc23)cc1NS(C)(=O)=O", "IC50": "≤ 0.01 µM"}
{"MOLECULE": "COc1ncc(-c2nc(N3CCOCC3)nc3c(OC4CCN(c5c(F)cc(C(=O)NO)cc5F)CC4)cc(F)cc23)cc1NS(C)(=O)=O", "IC50": "0.01 to 0.1 µM"}
{"MOLECULE": "COc1ncc(-c2nc(N3CCOCC3)nc3c(OCCCCCCC(=O)NO)cc(F)cc23)cc1NS(C)(=O)=O", "IC50": "0.01 to 0.1 µM"}
{"MOLECULE": "COc1ncc(-c2nc(N3CCOCC3)nc3c(OCc4ncc(C(=O)NO)cc4F)cc(F)cc23)cc1NS(C)(=O)=O", "IC50": "1 to 10 µM"}
{"MOLECULE": "COc1ncc(-c2nc(N3CCOCC3)nc3c(CN4CCN(c5ncc(C(=O)NO)cn5)CC4)cc(F)cc23)cc1NS(C)(=O)=O", "IC50": "≤ 0.01 µM"}
{"MOLECULE": "COc1ncc(-c2nc(N3CCOCC3)nc3c(O[C@H]4CC[C@H](N5CCC(C(=O)NO)CC5)CC4)cc(F)cc23)cc1NS(C)(=O)=O", "IC50": "≤ 0.01 µM"}
{"MOLECULE": "COc1ncc(-c2nc(N3CCOCC3)nc3c(CN4CCC(CCNC(=O)NO)CC4)cc(F)cc23)cc1NS(C)(=O)=O", "IC50": "≤ 0.01 µM"}
{"MOLECULE": "COc1ncc(-c2nc(N3CCOCC3)nc3c(CN4CCC(CCCC(=O)NO)CC4)cc(F)cc23)cc1NS(=O)(=O)C(F)(F)F", "IC50": "≤ 0.01 µM"}
{"MOLECULE": "COc1ncc(-c2nc(N3CCOCC3)nc3c(OC4CCN(Cc5ccc(C(=O)NO)cc5F)CC4)cc(F)cc23)cc1NS(C)(=O)=O", "IC50": "0.01 to 0.1 µM"}
{"MOLECULE": "COc1ncc(-c2nc(N3CCOCC3)nc3c(OC4CCN(c5ncc(C(=O)NO)cn5)CC4)cc(F)cc23)cc1NS(C)(=O)=O", "IC50": "≤ 0.01 µM"}
{"MOLECULE": "COc1ncc(-c2nc(N3CCOCC3)nc3c(OC4CCN(c5ccc(C(=O)NO)cc5F)CC4)cc(F)cc23)cc1NS(C)(=O)=O", "IC50": "0.01 to 0.1 µM"}
{"MOLECULE": "COc1ncc(-c2nc(N3CCOCC3)nc3c(CN4CCN(Cc5ccc(C(=O)NO)cc5)CC4)cc(F)cc23)cc1NS(C)(=O)=O", "IC50": "≤ 0.01 µM"}
{"MOLECULE": "COc1ncc(-c2nc(N3CCOCC3)nc3c(CN4CCC(c5ccc(C(=O)NO)cc5F)CC4)cc(F)cc23)cc1NS(C)(=O)=O", "IC50": "≤ 0.01 µM"}
{"MOLECULE": "COc1ncc(-c2nc(N3CCOCC3)nc3c(CN4CCc5cc(C(=O)NO)cc(F)c5C4)cc(F)cc23)cc1NS(C)(=O)=O", "IC50": "0.01 to 0.1 µM"}
{"MOLECULE": "COc1ncc(-c2nc(N3CCOCC3)nc3c(CN4CCC(C(=O)NO)CC4)cc(F)cc23)cc1NS(C)(=O)=O", "IC50": "0.01 to 0.1 µM"}
{"MOLECULE": "COc1ncc(-c2nc(N3CCOCC3)nc3c(CN4CCC(C(C)(C)OCC(=O)NO)CC4)cc(F)cc23)cc1NS(C)(=O)=O", "IC50": "≤ 0.01 µM"}
{"MOLECULE": "COc1ncc(-c2nc(N3CCOCC3)nc3c(CNc4ncc(C(=O)NO)cc4F)cc(F)cc23)cc1NS(C)(=O)=O", "IC50": "≤ 0.01 µM"}
{"MOLECULE": "COc1ncc(-c2nc(N3CCOCC3)nc3c(OC4CCN(c5ncc(C(=O)NO)cc5F)CC4)cc(F)cc23)cc1NS(C)(=O)=O", "IC50": "0.01 to 0.1 µM"}
{"MOLECULE": "COc1ncc(-c2nc(N3CCOCC3)nc3c(CNc4ccc(C(=O)NO)cc4F)cc(F)cc23)cc1NS(C)(=O)=O", "IC50": "0.01 to 0.1 µM"}
{"MOLECULE": "COc1ncc(-c2nc(N3CCOCC3)nc3c(OCCc4ccc(C(=O)NO)cc4F)cc(F)cc23)cc1NS(C)(=O)=O", "IC50": "0.1 to 1 µM"}
{"MOLECULE": "COc1ncc(-c2nc(N3CCOCC3)nc3c(CN4CCC(C(C)(C)O)CC4)cc(F)cc23)cc1NS(C)(=O)=O [YY-20394, reference compound]", "IC50": "≤ 0.01 µM"}

====

Entries with their measured IC50, system UniProt:P42336:

{"COMPOUND": "COc1ncc(-c2nc(N3CCOCC3)nc3c(CN4CCC(CCCC(=O)NO)CC4)cc(F)cc23)cc1NS(=O)(=O)C(F)(F)F [Compound 26]", "IC50": "100 to 1000 nM"}
{"COMPOUND": "COc1ncc(-c2nc(N3CCOCC3)nc3c(CN4CCC(C(C)(C)O)CC4)cc(F)cc23)cc1NS(C)(=O)=O [YY-20394, reference compound]", "IC50": "100 to 1000 nM"}
{"COMPOUND": "COc1ncc(-c2nc(N3CCOCC3)nc3c(OC4CCN(c5ncc(C(=O)NO)cc5F)CC4)cc(F)cc23)cc1NS(C)(=O)=O [Compound 30]", "IC50": "100 to 1000 nM"}
{"COMPOUND": "COc1ncc(-c2nc(N3CCOCC3)nc3c(CN4CCC(c5ccc(C(=O)NO)cc5F)CC4)cc(F)cc23)cc1NS(=O)(=O)C(F)(F)F [Compound 29]", "IC50": "100 to 1000 nM"}
{"COMPOUND": "COc1ncc(-c2nc(N3CCOCC3)nc3c(OCCCCCCC(=O)NO)cc(F)cc23)cc1NS(C)(=O)=O [Compound 9]", "IC50": "1000 to 10000 nM"}
{"COMPOUND": "COc1ncc(-c2nc(N3CCOCC3)nc3c(CN4CCC(OCCC(=O)NO)CC4)cc(F)cc23)cc1NS(C)(=O)=O [Compound 11]", "IC50": "1000 to 10000 nM"}
{"COMPOUND": "COc1ncc(-c2nc(N3CCOCC3)nc3c(CN4CCC(N5CCC(C(=O)NO)CC5)CC4)cc(F)cc23)cc1NS(C)(=O)=O [Compound 14]", "IC50": "1000 to 10000 nM"}
{"COMPOUND": "COc1ncc(-c2nc(N3CCOCC3)nc3c(CN4CCC(CCCCC(=O)NO)CC4)cc(F)cc23)cc1NS(C)(=O)=O [Compound 15]", "IC50": "100 to 1000 nM"}
{"COMPOUND": "COc1ncc(-c2nc(N3CCOCC3)nc3c(CN4CCC(CCNC(=O)NO)CC4)cc(F)cc23)cc1NS(C)(=O)=O [Compound 28]", "IC50": "100 to 1000 nM"}
{"COMPOUND": "COc1ncc(-c2nc(N3CCOCC3)nc3c(CN4CCN(Cc5ccc(C(=O)NO)cc5)CC4)cc(F)cc23)cc1NS(C)(=O)=O [Compound 10]", "IC50": "100 to 1000 nM"}
{"COMPOUND": "COc1ncc(-c2nc(N3CCOCC3)nc3c(CN4CCN(Cc5ncc(C(=O)NO)cn5)CC4)cc(F)cc23)cc1NS(C)(=O)=O [Compound 12]", "IC50": "100 to 1000 nM"}
